- Assay Name: AUC (0 to 24 hrs ) in ICR mouse at 20 mg/kg, po by LC-MS/MS analysis
- Assay type: ADME, organism-based
- Set-up: dose 20 mg/kg, time < 24 hr, route oral
- Experimental Setup: in vivo
Measured Property: AUC(0-t) at 24 h (ng·h/mL)

Example entries and their recorded answers appear below.
Molecule Smiles: Fc1ccc(Cl)c(COc2cccc3onc(Nc4cccnc4)c23)c1
AUC(0-t) at 24 h / ng·h/mL: 1900
//
Molecule Smiles: Clc1cccc(COc2cccc3onc(Nc4cccnc4)c23)c1
AUC(0-t) at 24 h / ng·h/mL: 1800

A. Clc1cccc(Cl)c1COc1cccc2onc(Nc3cccnc3)c12
B. FC(F)(F)Oc1ccccc1COc1cccc2onc(Nc3cccnc3)c12
Looking only at measured AUC(0-t) at 24 h, which entry is lower, A or B ? Reply briefly: the label of your chosen item.
B
(B: 1500 ng·h/mL, A: 3000 ng·h/mL)
